B1: Pistol ribozyme (parent)
chain: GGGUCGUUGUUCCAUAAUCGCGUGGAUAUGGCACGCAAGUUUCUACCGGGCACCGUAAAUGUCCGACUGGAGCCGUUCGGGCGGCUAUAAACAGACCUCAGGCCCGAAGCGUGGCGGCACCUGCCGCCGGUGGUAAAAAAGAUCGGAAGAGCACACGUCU

- Variants of: B1
- test.method.notes: aptazyme ON/OFF ratio, guanine; higher = stronger switching; co-transcriptional cleavage with and without guanine
Listed variants paired with reported aptazyme ON/OFF ratio
Lab note: record just the number, no unit beside it.

> print(dat)
            mutation.notation       measurement.name  reported.value
1  U7A U8G G9C U11A C12U C13G  aptazyme ON/OFF ratio            1.37

What the record says about U7G U8G G9A U10A U11C C12U C13A : aptazyme ON/OFF ratio is 1.08

What the record says about U8A U11A C12G C13G : aptazyme ON/OFF ratio is 1.06

What the record says about U7C U8C G9A U10A U11G C12G : aptazyme ON/OFF ratio is 1.25

What the record says about U7A G9C U10C U11A C12U C13A : aptazyme ON/OFF ratio is 1.04

What the record says about U7A U8A G9A C12G C13U : aptazyme ON/OFF ratio is 1.14

What the record says about U7A G9A U10G C12A C13U : aptazyme ON/OFF ratio is 1.34

What the record says about U7G U8C G9A U10C C12U C13G : aptazyme ON/OFF ratio is 1.11

What the record says about U7A U8G G9C U11C C12A C13A : aptazyme ON/OFF ratio is 1.17

What the record says about U7G U8C G9A U10A U11G C12U C13A : aptazyme ON/OFF ratio is 1.16

What the record says about U8G G9U U10G U11C C13U : aptazyme ON/OFF ratio is 1.03

What the record says about U7A U8C G9A U10A U11C C13A : aptazyme ON/OFF ratio is 1.02

What the record says about U7C U8C C12U C13G : aptazyme ON/OFF ratio is 1.2

What the record says about U7C U8G G9C U10A U11C C12G C13A : aptazyme ON/OFF ratio is 1.24
